# collection of pIC50 values tested on DNA polymerase beta (Homo sapiens)
Give only the number. pIC50 is defined as minus log10 of concentration in molar units.

[in] Enter measured pIC50, system DNA polymerase beta (Homo sapiens), for the molecule shown: Cc1cn([C@H]2C[C@H](N=[N+]=[N-])[C@@H](CO[P@](=O)(O)O[P@](=O)(O)OP(=O)(O)O)O2)c(=O)[nH]c1=O [ZIDOVUDINE TRIPHOSPHATE]
[out] 4.80

Below: the item to evaluate.
[in] For DNA polymerase beta (Homo sapiens), give pIC50 of the listed molecule: CCCc1cc(=O)oc2c3c(c4c(c12)OC(C)(C)C=C4)O[C@H](C)[C@@H](C)[C@@H]3O [CALANOLIDE A]
[out] 3.69
